# Tested On: T1, PUF4 RNA-binding domain (Saccharomyces cerevisiae, UniProt P25339 537-888)
# T1 sequence: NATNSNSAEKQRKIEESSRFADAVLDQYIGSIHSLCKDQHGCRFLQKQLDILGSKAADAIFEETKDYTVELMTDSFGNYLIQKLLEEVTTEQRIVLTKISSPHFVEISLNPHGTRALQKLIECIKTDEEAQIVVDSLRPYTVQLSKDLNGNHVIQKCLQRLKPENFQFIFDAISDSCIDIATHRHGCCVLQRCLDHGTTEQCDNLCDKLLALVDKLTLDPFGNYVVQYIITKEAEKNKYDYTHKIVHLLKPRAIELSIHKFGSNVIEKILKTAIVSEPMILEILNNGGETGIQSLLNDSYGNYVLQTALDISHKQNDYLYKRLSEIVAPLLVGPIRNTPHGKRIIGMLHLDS
# Measurement Description: Mg; RNA-MaP; 20 mM Na-HEPES pH 7.4, 30 mM KOAc, 0.75 mM MgCl2, 0.1% Tween-20, 5% glycerol, 0.1 mg/mL BSA, 2 mM DTT; 25 C; 0.0125-409.6 nM protein
# Settings: tags: N-His6-TEV cleaved; C-SNAP kept, Cy3B-labelled; label: tethered on chip by stalled RNA polymerase
Each record here notes measured Kd.
Observation Type: Kd (nM)

Binder	Units Text	Result Qualifier	Endpoint Value
Id_ii_S2_P4E.2_K4.1_C4.2_[T-1A]_H4.1_A4.1_F4.1_T4.2_[G10A]_[T11A] (ssRNA) RNA: UUUGAUUAAUAUGAUAUCGUUCUUUCUCAUGUAUAUUAAAUUCUUUCUCGAUAUCAUAUUAAUCUUU	nM	=	0.937
UCUCUUAGACACUUAUUAACUCUCUU (ssRNA) [Id_ii_S1_P5E.4_K5.3_C5.2_[C-2A]_[T-1G]_H5.3_A5.1_F5.1_T5.2_[T11A]_[A12C]]	nM	>	2300
Id_ii_S2_P5E.3_K5.2_C5.2_H5.2_A5.1_F5.1_T5.2_[T11C]_[A12C] (ssRNA) RNA: UUUGAUUAAUAUGAUAUCGUUCUUUCUCUUAUAUUAUUACCUUCUUUCUCGAUAUCAUAUUAAUCUUU	nM	=	92.1
Id_ii_S4_P4E.3_K4.2_C4.2_[C-2G]_[T-1G]_H4.2_A4.1_F4.1_T4.2_[G10A] (ssRNA) RNA: UUUGACAACUGAUCGUUCUUUCUGGUAUAUAUUAAUUUCUUUCUCGAUCAGUUGUCUUU	nM	=	125
Ie_S2_P5E.1_K5.1_C5.1_H5.1_A5.1_F5.1_[+8CCT]_T5.1 (ssRNA) RNA: UUUGAUUAAUAUGAUAUCGUUCUUUCUUGUAUUAUCCUUAUUCUUUCUCGAUAUCAUAUUAAUCUUU	nM	=	16.6
UCUCUUUGUAUUUAUAUCUCUU (ssRNA) [Ib_S1_P5E.1_K5.1_C5.1_H5.1_A5.1_[A7T]_F5.1_[T8A]_T5.1]	nM	=	5.27
Ic_S2_P5E.1_K5.1_C5.1_H5.1_A5.1_[T6C]_[A7G]_F5.1_[T8A]_[A10C]_T5.1 (ssRNA) RNA: UUUGAUUAAUAUGAUAUCGUUCUUUCUUGUAUCGAUCUUCUUUCUCGAUAUCAUAUUAAUCUUU	nM	=	1490
Ie_S2_P4E.1_K4.1_C4.1_H4.1_A4.1_F4.1_[+9TC]_T4.1 (ssRNA) RNA: UUUGAUUAAUAUGAUAUCGUUCUUUCUUGUAUAUUAUCUUCUUUCUCGAUAUCAUAUUAAUCUUU	nM	=	0.411
UCUCUUUGUAUAUCCUCUAUCUCUU (ssRNA) [Ie_S1_P4E.1_K4.1_C4.1_H4.1_A4.1_[+7CCTC]_F4.1_T4.1]	nM	=	25.3
ACAAACAGUAGAUUAACAAAC (ssRNA) [Ib_S3_P4E.1_K4.1_C4.1_H4.1_[T1A]_A4.1_[T5G]_F4.1_T4.1]	nM	=	828
Id_ii_S2_P4E.2_K4.1_C4.2_[T-1G]_H4.1_A4.1_F4.1_T4.2 (ssRNA) RNA: UUUGAUUAAUAUGAUAUCGUUCUUUCUCGUGUAUAUUAGUUUCUUUCUCGAUAUCAUAUUAAUCUUU	nM	=	0.296
Ib_S2_P4E.1_K4.1_C4.1_H4.1_[G2T]_A4.1_[A6G]_F4.1_T4.1 (ssRNA) RNA: UUUGAUUAAUAUGAUAUCGUUCUUUCUUUUAUGUUAUUCUUUCUCGAUAUCAUAUUAAUCUUU	nM	>	2300
UCUCUUUGUACGUCAUUCUCUU (ssRNA) [Ic_S1_P5E.1_K5.1_C5.1_H5.1_A5.1_[T5C]_[T6G]_[A7T]_F5.1_[T8C]_[T9A]_[A10T]_T5.1]	nM	=	96.5
UCUCUUGCUAUAUAUACUUCUCUU (ssRNA) [Id_ii_S1_P3E.3_K3.2_C3.2_[C-2G]_[T-1C]_H3.2_A3.1_F3.1_T3.2_[T9C]_[A10T]]	nM	=	853
Ie_S2_P5E.1_K5.1_C5.1_H5.1_A5.1_[+6TCT]_F5.1_T5.1 (ssRNA) RNA: UUUGAUUAAUAUGAUAUCGUUCUUUCUUGUAUUUCUAUUAUUCUUUCUCGAUAUCAUAUUAAUCUUU	nM	=	2.42
ACAAACGGUAUAUAAACAAAC (ssRNA) [Ib_S3_P4E.1_K4.1_C4.1_H4.1_[T1G]_A4.1_F4.1_[T8A]_T4.1]	nM	=	1980
Id_ii_S2_P3E.2_K3.1_C3.2_[C-2A]_H3.1_A3.1_F3.1_T3.2_[T9C]_[A10T] (ssRNA) RNA: UUUGAUUAAUAUGAUAUCGUUCUUUCUAUUGUAUAUACUUUCUUUCUCGAUAUCAUAUUAAUCUUU	nM	=	8.7
ACAAACAUUAUAUUAUUACAACAAAC (ssRNA) [Id_ii_S3_P5E.3_K5.2_C5.2_[C-2A]_H5.2_A5.1_F5.1_T5.2_[T11C]]	nM	=	464
Id_ii_S2_P4E.4_K4.3_C4.2_[C-2A]_H4.3_A4.1_F4.1_T4.2_[G10T]_[T11C] (ssRNA) RNA: UUUGAUUAAUAUGAUAUCGUUCUUUCUAUACACUAUUAUCUUCUUUCUCGAUAUCAUAUUAAUCUUU	nM	=	10.3
UCUCUUUGUACCUUGGUCUCUU (ssRNA) [Ic_S1_P5E.1_K5.1_C5.1_H5.1_A5.1_[T5C]_[T6C]_[A7T]_F5.1_[T9G]_[A10G]_T5.1]	nM	=	103
Ic_S4_P5E.1_K5.1_C5.1_H5.1_A5.1_[T5C]_[T6A]_[A7C]_F5.1_[T9G]_[A10G]_T5.1 (ssRNA) RNA: UUUGACAACUGAUCGUUCUUUCUUGUACACUGGUUCUUUCUCGAUCAGUUGUCUUU	nM	=	14.9
UCUCUUAUUGUAUUAUUAGCUCUCUU (ssRNA) [Id_ii_S1_P5E.2_K5.1_C5.2_[C-2A]_H5.1_A5.1_F5.1_T5.2_[T11G]_[A12C]]	nM	=	4.53
UCUCUUUAUACACUAUUAGUUCUCUU (ssRNA) [Id_iii_S1_P4E.7_K4.3_C4.3_[C-2A]_H4.3_A4.1_F4.1_T4.2]	nM	=	39.2
UCUCUUCAUAUAUAUAGUUCUCUU (ssRNA) [Id_ii_S1_P3E.3_K3.2_C3.2_[T-1A]_H3.2_A3.1_F3.1_T3.2_[T9G]_[A10T]]	nM	=	413
